- experimentalSystem: HIV-1 AC10.0.29 envelope (Env) on Env.IMC.LucR virus (HIV-1 clade B)
- assayInfo: cell-based or functional assay
assayReadout: IC50 of virus neutralization (TZM-BL, luciferase) (µg/mL)
Give bare numbers, in µg/mL.

IC50 of virus neutralization (TZM-BL, luciferase) for Cd4bs_H53MS_H54GY (antibody, V domains shown) VH: ADLVQSGAVVKKPGDSVRISCEAQGYRFPDYIIHWIRRAPGQGPEWMGWMNPSYGQVNIPWKFQGRVSMTRDTSIETAFLDLRGLKSDDTAVYYCVRDRSNGSGKRFESSNWFLDLWGRGTAVTIQS VL: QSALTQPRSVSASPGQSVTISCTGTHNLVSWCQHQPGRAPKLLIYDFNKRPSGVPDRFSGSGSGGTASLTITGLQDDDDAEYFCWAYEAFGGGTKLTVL is 3

Cited source: patent US20210040184A1
